The following compounds were reported with Ki values on the protein given by its sequence in different studies.
Target chain: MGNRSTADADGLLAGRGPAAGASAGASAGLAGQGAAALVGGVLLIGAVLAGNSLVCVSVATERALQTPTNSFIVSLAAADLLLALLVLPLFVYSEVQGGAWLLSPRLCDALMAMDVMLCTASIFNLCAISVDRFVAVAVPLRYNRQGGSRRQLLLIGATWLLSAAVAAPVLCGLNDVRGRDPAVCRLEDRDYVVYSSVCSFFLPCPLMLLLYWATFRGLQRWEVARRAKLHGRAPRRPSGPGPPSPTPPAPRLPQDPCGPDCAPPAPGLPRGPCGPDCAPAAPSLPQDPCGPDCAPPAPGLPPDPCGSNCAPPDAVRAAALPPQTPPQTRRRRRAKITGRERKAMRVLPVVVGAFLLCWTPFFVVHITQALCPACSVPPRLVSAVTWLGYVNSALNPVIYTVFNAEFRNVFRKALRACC
readout: Ki (nM)

CCN1CCC[C@H]1CNC(=O)c1c(O)c(Cl)cc(Cl)c1OC; 1340
Clc1ccc(N2CCN(Cc3cc4ccccn4n3)CC2)cc1; 2.19
OCc1ccc2c(CN3CCN(c4ccccc4)CC3)cnn2c1; 19.5
CC(CN(C)C)CN1c2ccccc2Sc2ccc(C#N)cc21 (centres undefined); 5.3
CSc1ccc2c(c1)N(CC[C@@H]1CCCCN1C)c1ccccc1S2; 22.9
Cc1cccc2c(CN3CCN(c4ccc(Cl)cc4)CC3)cnn12; 2.69
CC1CCN(CCCC(=O)c2ccc(F)cc2)CC1; 139
Clc1cccc(N2CCN(Cc3cnn4ccc5ccccc5c34)CC2)c1; 794
Clc1ccc(N2CCN(Cc3ccc[nH]3)CC2)cc1; 26.3
C#Cc1cccc2c(CN3CCN(c4ccc(Cl)cc4)CC3)cnn12; 1.23
Clc1ccc(N2CCN(Cc3cnn4ccccc34)CC2)cc1Cl; 5.62
Cc1cccn2ncc(CN3CCN(c4ccc(Cl)cc4)CC3)c12; 50.1
Fc1ccc(N2CCN(Cc3cnn4ccccc34)CC2)cc1; 20
Clc1ccc(N2CCN(Cc3cc[nH]c3)CC2)cc1; 38.9
